# System: LPS-induced microglia activation
# assayInfo: Image-based assay of LPS-induced microglia activation (HTS and dose response)
# Type: cell-based, rat
# conditionNotes: Rattus norvegicus, Microglia, primary microglia HTS, LPS stimulation, compounds at 10 μM; read-out: LPS % inhibition
endpoint: inhibition at 10 µM

Below, 3 compounds whose answers are already recorded.
{"compound": "COC(=O)C1=CCCN(C)C1", "inhibition at 10 µM": "14%"}
{"compound": "C#C[C@]1(O)CC[C@H]2[C@@H]3CCC4=Cc5oncc5C[C@]4(C)[C@H]3CC[C@@]21C", "inhibition at 10 µM": "5%"}
{"compound": "CC(=O)Nc1ccc(CC(=O)O)cc1", "inhibition at 10 µM": "9%"}

I am curious: what inhibition at 10 µM value has been reported for O=C1C(O)=C([C@H]2CC[C@H](c3ccc(Cl)cc3)CC2)C(=O)c2ccccc21 ? 13%

Again, but for C[C@]12C=CC(=O)C=C1CC[C@@H]1[C@@H]2[C@@H](O)C[C@@]2(C)[C@H]1CC[C@]2(O)C(=O)CO [Prednisolone, reference compound] 87%

Field entry: Cc1cc(N)c2ccccc2[n+]1CCCCCCCCCC[n+]1c(C)cc(N)c2ccccc21 2%

One more compound: C#Cc1cccc(Nc2ncnc3cc(OCCOC)c(OCCOC)cc23)c1 -8%

Again, but for CC[C@]1(O)C[C@H]2CN(CCc3c([nH]c4ccccc34)[C@@](C(=O)OC)(c3cc4c(cc3OC)N(C=O)[C@H]3[C@@](O)(C(=O)OC)[C@H](OC(C)=O)[C@]5(CC)C=CCN6CC[C@]43[C@@H]65)C2)C1 104%

====

# Test system: LPS-induced microglia activation
# assayInfo: Image-based assay of LPS-induced microglia activation (HTS and dose response)
# Format: cell-based, rat
# conditionNotes: Table 7; read-out: LPS_IC50
endpoint: pIC50
Friendly reminder that pIC50 comes from taking -log10 of the concentration in mol/L.

// lookup pIC50 for COc1cc([C@@H]2c3cc4c(c(O)c3C[C@H]3COC(=O)[C@@H]32)OCO4)cc(OC)c1OC 6.60

====

# System: primary rat microglia;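 note: share of dead cells sized under 150 µm2 at 10 µM in fibrin-stimulated microglia HTS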
Counter-ions that a name gives are not always drawn.
Fibrin % cell toxicity under 1% gets true (1), anything at or over 1% gets false (0).

{"compound": "C=CCc1ccccc1OCC(O)CNC(C)C (stereo not shown) [Alprenolol Hydrochloride, Alprenolol]", "categoryLabel": "true (1)"}
{"compound": "CC=CC(=O)N(CC)c1ccccc1C [Crotamiton]", "categoryLabel": "true (1)"}
{"compound": "O=c1ccc2ccccc2o1 [2H-1-BENZOPYRAN-2-ONE]", "categoryLabel": "true (1)"}
{"compound": "CO[C@@]12[C@H](COC(N)=O)C3=C(C(=O)C(C)=C(N)C3=O)N1C[C@@H]1N[C@@H]12 [Mitomycin C, Mitomycin]", "categoryLabel": "false (0)"}
{"compound": "CC[C@]1(O)C[C@@H]2CN(CCc3c([nH]c4ccccc34)[C@@](C(=O)OC)(c3cc4c(cc3OC)N(C)[C@H]3[C@@](O)(C(N)=O)[C@H](O)[C@]5(CC)C=CCN6CC[C@]43[C@@H]65)C2)C1 [Vindesine, Vindesine Sulfate]", "categoryLabel": "false (0)"}

Consider the compound O=P1(N(CCCl)CCCl)NCCCO1 (stereo not shown) . Is its Fibrin % cell toxicity strictly less than 1%? true (1)

// same read-out, input: Cc1c(C)c2c(c(C)c1O)CCC(C)(CCCC(C)CCCC(C)CCCC(C)C)O2 (stereo not drawn) [Alpha-tochopherol] true (1)

Moving on to the next compound: COc1cccc2c1C(=O)c1c(O)c3c(c(O)c1C2=O)C[C@@](O)(C(=O)CO)C[C@@H]3O[C@H]1C[C@H](N)[C@@H](O)[C@H](C)O1 [Epirubicin, Epirubicin Hydrochloride] false (0)

Same read-out for NC(=O)CC[C@H](N)C(=O)O [L-glutamine, Glutamine (I)] ? true (1)

Subsequent entry: COc1cc([C@@H]2c3cc4c(cc3[C@H](O)[C@H]3COC(=O)[C@H]23)OCO4)cc(OC)c1OC [Podofilox/Podophyllotoxin] false (0)

What about this compound? C#CCN(C)CCCOc1ccc(Cl)cc1Cl.Cl true (1)

Also CN(Cc1cnc2nc(N)nc(N)c2n1)c1ccc(C(=O)N[C@@H](CCC(=O)O)C(=O)O)cc1 (racemic) [Methotrexate(+/−)] ? true (1)
